species: Mus musculus; experiment: Compound was evaluated for its potency in CDF1 mice and the serum triglyceride levels were determined; assay type: ADME, organism-based

- COMPOUND_SMILES: "CC[C@H](CC[C@@H](C)[C@H]1CC[C@H]2[C@@H]3CCC4=CC(=O)CC[C@]4(C)[C@H]3CC[C@]12C)C(C)C"
  Serum triglyceride / mg/dL: 188.3
- COMPOUND_SMILES: "CC(C)CCC[C@@H](C)[C@H]1CC[C@H]2[C@@H]3C=CC4=CC(=O)CC[C@]4(C)[C@H]3CC[C@]12C"
  Serum triglyceride / mg/dL: 172.6
- COMPOUND_SMILES: "CC(C)CCC[C@@H](C)[C@H]1CC[C@H]2[C@@H]3CC=C4CCCC[C@]4(C)[C@H]3CC[C@]12C"
  Serum triglyceride / mg/dL: 253.6
- COMPOUND_SMILES: "CC(C)CCC[C@@H](C)[C@H]1CC[C@H]2[C@@H]3C[C@H](Br)C4=CC(=O)CC[C@]4(C)[C@H]3CC[C@]12C"
  Serum triglyceride / mg/dL: 257.3
- COMPOUND_SMILES: "CC(C)CCC[C@@H](C)[C@H]1CC[C@H]2[C@@H]3C=CC4=CC(=O)C=C[C@]4(C)[C@H]3CC[C@]12C"
  Serum triglyceride / mg/dL: 390.4
- COMPOUND_SMILES: "CC(C)CCC[C@@H](C)[C@H]1CC[C@H]2[C@@H]3C[C@@H](O)C4=CC(=O)CC[C@]4(C)[C@H]3CC[C@]12C"
  Serum triglyceride / mg/dL: 120
